# assayTarget: T1, recombinant human LAG3 expressed with a C-terminal mouse IgG2a mFc tag (human)
# T1 construct: Called dimeric; also called hLAG3-mFc; hLAG3 dimer
# T1 chain: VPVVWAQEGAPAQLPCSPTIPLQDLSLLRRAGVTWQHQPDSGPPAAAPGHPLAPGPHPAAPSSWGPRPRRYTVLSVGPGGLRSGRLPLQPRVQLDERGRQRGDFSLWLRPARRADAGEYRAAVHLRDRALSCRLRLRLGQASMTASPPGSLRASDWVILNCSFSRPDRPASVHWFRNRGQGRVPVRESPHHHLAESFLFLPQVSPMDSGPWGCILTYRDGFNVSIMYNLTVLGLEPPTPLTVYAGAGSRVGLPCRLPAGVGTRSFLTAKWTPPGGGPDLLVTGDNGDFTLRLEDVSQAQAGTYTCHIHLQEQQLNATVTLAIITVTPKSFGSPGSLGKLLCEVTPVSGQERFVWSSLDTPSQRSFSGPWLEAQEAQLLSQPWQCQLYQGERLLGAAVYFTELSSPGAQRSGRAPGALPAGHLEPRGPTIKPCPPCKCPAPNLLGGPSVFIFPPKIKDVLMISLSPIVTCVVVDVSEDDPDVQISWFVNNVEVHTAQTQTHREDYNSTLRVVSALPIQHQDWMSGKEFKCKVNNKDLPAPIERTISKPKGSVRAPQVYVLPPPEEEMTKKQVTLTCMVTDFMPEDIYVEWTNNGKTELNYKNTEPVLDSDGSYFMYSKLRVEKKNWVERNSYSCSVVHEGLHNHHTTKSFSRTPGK
# assayText: SPR, mAb captured, 25 C

# binder, unitsOfMeasure, kon
rows = [
    ("H4H17819P (antibody, human IgG4, V domains shown, H4H = human IgG4 Fc with S108P hinge mutation) VH: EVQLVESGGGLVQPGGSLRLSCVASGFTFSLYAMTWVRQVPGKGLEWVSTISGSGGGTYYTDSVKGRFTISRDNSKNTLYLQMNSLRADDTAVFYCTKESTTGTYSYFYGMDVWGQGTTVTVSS VL: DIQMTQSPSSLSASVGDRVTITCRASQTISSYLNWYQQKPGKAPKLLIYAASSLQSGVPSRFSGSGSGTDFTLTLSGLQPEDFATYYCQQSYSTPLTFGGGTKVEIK", "M⁻¹ s⁻¹", "1.45e+06"),
    ("H4H15483P (antibody, human IgG4, V domains shown, H4H = human IgG4 Fc with S108P hinge mutation) VH: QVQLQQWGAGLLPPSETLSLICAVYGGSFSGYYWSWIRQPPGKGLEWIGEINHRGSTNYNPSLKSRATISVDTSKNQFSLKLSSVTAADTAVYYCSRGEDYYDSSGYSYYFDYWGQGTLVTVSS VL: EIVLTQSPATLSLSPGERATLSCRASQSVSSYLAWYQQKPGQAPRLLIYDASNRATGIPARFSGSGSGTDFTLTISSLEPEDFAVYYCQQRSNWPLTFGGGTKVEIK", "M⁻¹ s⁻¹", "1.34e+06"),
]
